# system tested: T1, ASAP1 SH3 domain (aa. 1083-1147) (mouse, UniProt Q9QWY8 1083-1147)
# T1 sequence (looked up): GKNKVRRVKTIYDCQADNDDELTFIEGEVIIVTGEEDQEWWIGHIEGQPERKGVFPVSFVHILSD
# experimental details: ITC
pKd: −log10 of the molar value.
assay endpoint: pKd

Fill in the blank: the reported pKd of GIKKPVRRKLKE (peptide, UniProt Q01484 1699-1710, looked up) [gAnkB peptide (aa. 1699-1710)] is ____.
~6.85

Source of measurements: paper doi:10.1101/2024.01.05.574302
